- protocol_notes: Thermal stability by Thermogravimetric Analysis (TGA)
- Assay type: physicochemical
- test_conditions: by intersection points of tangents
measure: T onset
Hey, just the number and the unit after it is fine.

CCOC(=O)CNC1=C/C(=N/c2ccc(NC(=O)OC(C)(C)C)cc2)CC(C)(C)C1    176.7 C
CCOC(=O)C1CSC2=C(CC(C)(C)C/C2=N\c2ccc(Oc3ccccc3)cc2)N1 (centres unmarked)    205.0 C
C#Cc1ccc(/N=C2\CC(C)(C)CC3=C2SCC(C(=O)OCC)N3)cc1 (centres unmarked)    197.4 C
CCOC(=O)CNC1=C/C(=N/c2ccc(Oc3ccccc3)cc2)CC(C)(C)C1    229.5 C
CCOC(=O)CNC1=C/C(=N/c2ccc(N3CCOCC3)cc2)CC(C)(C)C1    215.7 C

Need T onset for each of these compounds.
1. CCOC(=O)CNC1=C/C(=N/c2ccc(OCc3ccccc3)cc2)CC(C)(C)C1
2. CCCCCCCCOc1ccc(/N=C2/C=C(NC(Cc3ccccc3)C(=O)OC)CC(C)(C)C2)cc1 (centres unmarked)
3. CCOC(=O)C1CSC2=C(CC(C)(C)C/C2=N\c2ccc(N3CCOCC3)cc2)N1 (centres unmarked)

[out]
1: 215.3 C; 2: 193.6 C; 3: 186.1 C
